Quick note: these are HepSE_bilirubinemia numbers for system: Hepatotoxicity
Measure: HepSE_bilirubinemia

- Compound: "CC1=C(C(=O)O)N2C(=O)[C@@H](NC(=O)[C@H](N)c3ccc(O)cc3)[C@H]2SC1 [CEFADROXIL]"
  Result: 0
- Compound: "CC#C[C@]1(O)CC[C@H]2[C@@H]3CCc4cc(O)ccc4[C@H]3CC[C@@]21C [ESTROGEN]"
  Result: 0
- Compound: "CC[C@H](C)[C@@H]1NC(=O)[C@H](Cc2ccc(O)cc2)NC(=O)[C@@H](N)CSSC[C@@H](C(=O)N2CCC[C@H]2C(=O)N[C@@H](CC(C)C)C(=O)NCC(N)=O)NC(=O)[C@H](CC(N)=O)NC(=O)[C@H](CCC(N)=O)NC1=O [OXYTOCIN]"
  Result: 0
- Compound: "Cn1c(=O)c2[nH]cnc2n(C)c1=O.Cn1c(=O)c2[nH]cnc2n(C)c1=O.NCCN [AMINOPHYLLINE]"
  Result: 0
- Compound: "CO/N=C(\\C(=O)N[C@@H]1C(=O)N2C(C(=O)O)=C(COC(C)=O)CS[C@H]12)c1csc(N)n1 [CEFOTAXIME]"
  Result: 0
- Compound: "O=C1Cc2cc(CCN3CCN(c4nsc5ccccc45)CC3)c(Cl)cc2N1 [ZIPRASIDONE]"
  Result: 0
- Compound: "CCC1(c2ccccc2)NC(=O)N(C)C1=O (configuration not stated) [MEPHENYTOIN]"
  Result: 0

====

Where a SMILES comes first, the peptide text is derived from it. Bridges are numbered along the chain shown (N, C = ends). [ ]: non-standard residue; d: D form. The star is where a group is joined. Threoninol(2S,3R) = C[C@@H](O)[C@H](CO)N*
This document collects HepSE_hepatic necrosis values reported for Hepatotoxicity.

- Molecule: "O=C(c1ccccc1)c1ccc2n1CCC2C(=O)O (centres undefined)"
  System Name: "Hepatotoxicity"
  HepSE_hepatic necrosis: 0
- Molecule: "CCOC(=O)[C@H](CCc1ccccc1)N[C@@H](C)C(=O)N1[C@H](C(=O)O)C[C@@H]2CCC[C@@H]21"
  System Name: "Hepatotoxicity"
  HepSE_hepatic necrosis: 1
- Molecule: "Cc1cn([C@H]2C=C[C@@H](CO)O2)c(=O)[nH]c1=O"
  System Name: "Hepatotoxicity"
  HepSE_hepatic necrosis: 0
- Molecule: "CC#CCC(C)[C@H](O)/C=C/[C@@H]1[C@H]2C/C(=C/CCCC(=O)O)C[C@H]2C[C@H]1O (some centres undefined)"
  System Name: "Hepatotoxicity"
  HepSE_hepatic necrosis: 0
- Molecule: "NC[C@H]1O[C@H](O[C@H]2[C@H](O)[C@@H](O[C@H]3O[C@H](CO)[C@@H](O)[C@H](N)[C@H]3O)[C@H](N)C[C@@H]2N)[C@H](N)C[C@@H]1O"
  System Name: "Hepatotoxicity"
  HepSE_hepatic necrosis: 0
- Molecule: "O=P(O)(O)C(Cl)(Cl)P(=O)(O)O"
  System Name: "Hepatotoxicity"
  HepSE_hepatic necrosis: 0
- Molecule: "CN(C)S(=O)(=O)c1ccc2c(c1)N(CCCN1CCC(CCO)CC1)c1ccccc1S2"
  System Name: "Hepatotoxicity"
  HepSE_hepatic necrosis: 0
- Molecule: "NCCCC(=O)O"
  System Name: "Hepatotoxicity"
  HepSE_hepatic necrosis: 0
- Molecule: "C[C@H](/C=C/[C@H](C)C(C)(C)O)[C@H]1CC[C@H]2/C(=C/C=C3C[C@@H](O)C[C@H](O)C3)CCC[C@]12C"
  System Name: "Hepatotoxicity"
  HepSE_hepatic necrosis: 0
- Molecule: "OCCN1CCN(CCCN2c3ccccc3Sc3ccc(Cl)cc32)CC1"
  System Name: "Hepatotoxicity"
  HepSE_hepatic necrosis: 0
- Molecule: "CC(CCc1ccc(O)cc1)NCCc1ccc(O)c(O)c1 (centres undefined)"
  System Name: "Hepatotoxicity"
  HepSE_hepatic necrosis: 0
- Molecule: "COc1c(C)c2c(c(O)c1C/C=C(\\C)CCC(=O)O)C(=O)OC2"
  System Name: "Hepatotoxicity"
  HepSE_hepatic necrosis: 0
- Molecule: "CN1CC(=O)N2[C@H](c3ccc4c(c3)OCO4)c3[nH]c4ccccc4c3C[C@@H]2C1=O"
  System Name: "Hepatotoxicity"
  HepSE_hepatic necrosis: 0
- Molecule: "CC[C@]1(O)C[C@H]2CN(CCc3c([nH]c4ccccc34)[C@@](C(=O)OC)(c3cc4c(cc3OC)N(C=O)[C@H]3[C@@](O)(C(=O)OC)[C@H](OC(C)=O)[C@]5(CC)C=CCN6CC[C@]43[C@@H]65)C2)C1"
  System Name: "Hepatotoxicity"
  HepSE_hepatic necrosis: 0
- Molecule: "CC(C)/N=c1\\cc2n(-c3ccc(Cl)cc3)c3ccccc3nc-2cc1Nc1ccc(Cl)cc1"
  System Name: "Hepatotoxicity"
  HepSE_hepatic necrosis: 0
- Molecule: "CC(=O)CC(c1ccccc1)c1c(O)c2ccccc2oc1=O (centres undefined)"
  System Name: "Hepatotoxicity"
  HepSE_hepatic necrosis: 0
- Molecule: "CC1CNc2c(cccc2S(=O)(=O)N[C@@H](CCCNC(=N)N)C(=O)N2CC[C@@H](C)C[C@@H]2C(=O)O)C1 (some centres undefined)"
  System Name: "Hepatotoxicity"
  HepSE_hepatic necrosis: 0
- Molecule: "NCCC(O)(P(=O)(O)O)P(=O)(O)O"
  System Name: "Hepatotoxicity"
  HepSE_hepatic necrosis: 0
- Molecule: "II"
  System Name: "Hepatotoxicity"
  HepSE_hepatic necrosis: 0
- Molecule: "CCCCCCCCCCCCCCCCCCCCCCO"
  System Name: "Hepatotoxicity"
  HepSE_hepatic necrosis: 0
- Molecule: "C[n+]1ccccc1/C=N/O"
  System Name: "Hepatotoxicity"
  HepSE_hepatic necrosis: 0
- Molecule: "O=C(O)CCc1nc(-c2ccccc2)c(-c2ccccc2)o1"
  System Name: "Hepatotoxicity"
  HepSE_hepatic necrosis: 0
- Molecule: "OC[C@@H](O)[C@@H](O)[C@H](O)[C@H](O)CO"
  System Name: "Hepatotoxicity"
  HepSE_hepatic necrosis: 0
- Molecule: "CC#C[C@]1(O)CC[C@H]2[C@@H]3CCc4cc(O)ccc4[C@H]3CC[C@@]21C"
  System Name: "Hepatotoxicity"
  HepSE_hepatic necrosis: 0
- Molecule: "NC(=O)c1cnccn1 [PYRAZINAMIDE]"
  System Name: "Hepatotoxicity"
  HepSE_hepatic necrosis: 0
- Molecule: "Cc1nc2n(c(=O)c1CCN1CCC(c3noc4cc(F)ccc34)CC1)CCCC2"
  System Name: "Hepatotoxicity"
  HepSE_hepatic necrosis: 0
- Molecule: "C[C@@H](O)[C@H](CO)NC(=O)[C@@H]1CSSC[C@H](NC(=O)[C@H](N)Cc2ccccc2)C(=O)N[C@@H](Cc2ccccc2)C(=O)N[C@H](Cc2c[nH]c3ccccc23)C(=O)N[C@@H](CCCCN)C(=O)N[C@@H]([C@@H](C)O)C(=O)N1 (H-[dF]CF[dW]KTC-{Threoninol(2S,3R)}; disulfide 2-7)"
  System Name: "Hepatotoxicity"
  HepSE_hepatic necrosis: 0
- Molecule: "CCC1(c2ccc(N)cc2)CCC(=O)NC1=O (centres undefined) [AMINOGLUTETHIMIDE]"
  System Name: "Hepatotoxicity"
  HepSE_hepatic necrosis: 0
- Molecule: "CC(C)(C)NC[C@H](O)COc1cccc2c1CCCC2=O"
  System Name: "Hepatotoxicity"
  HepSE_hepatic necrosis: 0
- Molecule: "C#C[C@]1(O)CC[C@H]2[C@@H]3CCC4=Cc5oncc5C[C@]4(C)[C@H]3CC[C@@]21C"
  System Name: "Hepatotoxicity"
  HepSE_hepatic necrosis: 0
- Molecule: "COc1ccc(-c2ccc3cc(C(=O)O)ccc3c2)cc1C12CC3CC(CC(C3)C1)C2"
  System Name: "Hepatotoxicity"
  HepSE_hepatic necrosis: 0
- Molecule: "CN1CCN(CCCN2c3ccccc3Sc3ccc(C(F)(F)F)cc32)CC1"
  System Name: "Hepatotoxicity"
  HepSE_hepatic necrosis: 0
- Molecule: "Nc1nc2c(ncn2COCCO)c(=O)[nH]1"
  System Name: "Hepatotoxicity"
  HepSE_hepatic necrosis: 0
- Molecule: "O=NN(CCCl)C(=O)NCCCl"
  System Name: "Hepatotoxicity"
  HepSE_hepatic necrosis: 0
